# Tested on: LOC_OS02G08530-cb003
# Experimental protocol: thermal shift delta Tm vs DMSO control; higher = stronger stabilization (binding);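 further: purified Escherichia coli-expressed rice kinase domain construct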
# Conditions used: 12.5 µM; protein concentration 2 µM
This listing pairs compounds with measured thermal shift delta Tm.

Compound	Units of measure	thermal shift delta Tm
Cn1c(=O)c(F)c(Nc2ccc(I)cc2F)c2c(=O)n(C[C@@H](O)CO)cnc21	°C	0.9
CC(C)(C)c1ccc(S(=O)(=O)/C=C/C#N)cc1	°C	1.02
CC[C@H](CO)Nc1nc(NCc2ccccc2)c2ncn(C(C)C)c2n1 [Roscovitine (Seliciclib,CYC202)]	°C	0.8
OCCn1cc(-c2ccc3c(c2)CC/C3=N\O)c(-c2ccncc2)n1	°C	1
CCCS(=O)(=O)Nc1ccc(F)c(C(=O)c2c[nH]c3ncc(Cl)cc23)c1F	°C	0.84
O=c1[nH]nc(Sc2ncc([N+](=O)[O-])s2)n1-c1ccc2c(c1)OCCO2	°C	1.83
CC(C)(C)Cn1c(N)nc2ccc(-c3[nH]c(C(C)(C)C)nc3-c3ccc(F)cc3)nc21	°C	0.38
O=C(/C=C/c1ccc(O)c(O)c1)c1ccc(O)cc1O	°C	1.81
NC(=O)c1ccc2nc(-c3ccc(Oc4ccc(Cl)cc4)cc3)[nH]c2c1	°C	0.5

====

# Test system: LOC_OS03G50810-cb003
# Experimental protocol: thermal shift delta Tm vs DMSO control; higher = stronger stabilization (binding)
# Conditions used: 12.5 µM; protein concentration 2 µM
This listing pairs molecules with measured thermal shift delta Tm.

Molecule	thermal shift delta Tm / °C
CN1CCN(c2nc(C3=C(c4c[nH]c5ccccc45)C(=O)NC3=O)c3ccccc3n2)CC1 [Sotrastaurin]	1.38
Cn1c(Nc2ccc(C(F)(F)F)cc2)nc2cc(Oc3ccnc(-c4ncc(C(F)(F)F)[nH]4)c3)ccc21	1.92
CC(C)(C)c1cnc(CSc2cnc(NC(=O)C3CCNCC3)s2)o1	0.57
COc1ccc([C@@H]2OC[C@H]3[C@@H]2CO[C@@H]3c2ccc(O[C@@H]3O[C@H](CO)[C@@H](O)[C@H](O)[C@H]3O)c(OC)c2)cc1OC [Forsythin]	0.2
CN1CCC(Nc2nc(Nc3ccc(Oc4ccccc4)cc3)c3c(=O)[nH]cc(Br)c3n2)CC1	2.6
O=C(NC[C@H](O)CO)c1ccncc1Nc1ccc(I)cc1F	0.09
CC(C)NC[C@@H](C(=O)N1CCN(c2ncnc3c2[C@H](C)C[C@H]3O)CC1)c1ccc(Cl)cc1 [Ipatasertib (GDC-0068)]	0.45
COc1cc2ncnc(Oc3ccc(CC(=O)Nc4cnn(C(C)C)c4)cc3)c2cc1OC	0.5
C[C@@H](Oc1ccc2[nH]nc(/C=C/c3cnn(CCO)c3)c2c1)c1c(Cl)cncc1Cl	6.58
CC(=O)O/N=C1/C(c2c(O)[nH]c3cc(Br)ccc23)=Nc2ccccc21 [BIO-acetoxime]	5.4
O=c1cc(N2CCOCC2)oc2c(-c3ccc4c(c3)OCCO4)csc12	0.8
Cn1c2ccccc2c2c3c(c4c5ccccc5n(CCC#N)c4c21)CNC3=O	6.02
CNc1nc(Nc2cnn([C@H]3CCN(C4COC4)C[C@@H]3F)c2Cl)ncc1C(F)(F)F	4.12
COc1cc2c(Oc3ccc4[nH]c(C)cc4c3F)ncnc2cc1OCCCN1CCCC1 [Cediranib (AZD2171)]	2.04
Cc1[nH]nc2ccc(-c3cncc(OC[C@@H](N)Cc4ccccc4)c3)cc12	1.41
CC(C)(CCCCCC(O)CCCCCC(C)(C)C(=O)O)C(=O)O	0.41
CCOc1cc(C(=O)N2CCC(N3CCN(C)CC3)CC2)ccc1Nc1ncc2c(n1)N(C1CCCC1)c1ccccc1C(=O)N2C	0.18
Nc1cc(C(F)(F)F)c(-c2cc(N3CCOCC3)nc(N3CCOCC3)n2)cn1 [Buparlisib (BKM120, NVP-BKM120)]	0.38
COc1ccc(S(=O)(=O)N(C(C)=O)c2ccccc2/C=C/c2cc[n+]([O-])cc2)cc1	0.09
Cc1cc(NC(=O)c2cccc(NC(=O)/C=C/CN(C)C)c2)ccc1Nc1nccc(-c2cccnc2)n1	1.1
CCNC(=O)Nc1ccc(-c2nc(N3CCOC[C@@H]3C)c3c(n2)C(C)(C)S(=O)(=O)C3)cc1	0.16
O=c1c(O)c(-c2ccc(O)c(O)c2)oc2cc(O)cc(O)c12 [Quercetin]	2.6
O=C(O)c1ccc(-c2c[nH]c3ncc(-c4ccccc4)cc23)cc1C1CCCC1	0.8
CS(=O)(=O)N1CCN(Cc2cc3nc(-c4cccc5[nH]ncc45)nc(N4CCOCC4)c3s2)CC1 [Pictilisib (GDC-0941)]	1.56
Cc1[nH]c(/C=C2\C(=O)Nc3ccc(S(=O)(=O)Cc4c(Cl)cccc4Cl)cc32)c(C)c1C(=O)N1CCC[C@@H]1CN1CCCC1	0
Cn1cc(-c2ccc3nnc(Sc4ccc5ncccc5c4)n3n2)cn1	0.32
Cn1cc(-c2ccc3c(c2)CCN3C(=O)Cc2cccc(C(F)(F)F)c2)c2c(N)ncnc21	0.95
NC(=O)c1ccc2nc(-c3ccc(Oc4ccc(Cl)cc4)cc3)[nH]c2c1 [Chk2 Inhibitor II (BML-277)]	0.22
NC(=O)c1cnc2[nH]ccc2c1N[C@@H]1[C@@H]2CC3C[C@H]1C[C@@](O)(C3)C2	4.9
CO[C@H]1C[C@@H]2CC[C@@H](C)[C@@](O)(O2)C(=O)C(=O)N2CCCC[C@H]2C(=O)O[C@H]([C@H](C)C[C@@H]2CC[C@@H](OCCO)[C@H](OC)C2)CC(=O)[C@H](C)/C=C(\C)[C@@H](O)[C@@H](OC)C(=O)[C@H](C)C[C@H](C)/C=C/C=C/C=C/1C [Everolimus (RAD001)]	0.05
C=CC(=O)Nc1cccc(C)c1Nc1ncc2cc(-c3c(Cl)c(OC)cc(OC)c3Cl)ccc2n1	0.27
CNS(=O)(=O)C[C@H]1CC[C@H](N(C)c2[nH]cnc3nccc2-3)CC1 [Oclacitinib]	1.01
COc1ccc(-c2ccc3c(N4CCOCC4)nc(N4C[C@@H](C)O[C@@H](C)C4)nc3n2)cc1CO	-0.07
Cc1ccc(Nc2nccc(N(C)c3ccc4c(C)n(C)nc4c3)n2)cc1S(N)(=O)=O [Pazopanib]	0.98
COc1cccc(-c2cc(=O)c3ccccc3o2)c1N	0.04

====

This listing pairs compounds with measured thermal shift delta Tm.
# System: LOC_OS05G30820-cb001
# Experimental protocol: thermal shift delta Tm vs DMSO control; higher = stronger stabilization (binding)
# Conditions used: 12.5 µM; protein concentration 2 µM
Assay endpoint: thermal shift delta Tm (°C)

Compound	Assay endpoint	Units of measure	Data value
C[C@@H]1CN(C(=O)c2ccc(NC(=O)c3cc(O[C@H](C)c4c(Cl)ccc(F)c4Cl)c(N)nn3)cc2)C[C@H](C)N1	thermal shift delta Tm	°C	0.45
Fc1ccc2[nH]ccc2c1-c1nc(N2CCOCC2)c2sc(CN3CCN(CC4CC4)CC3)cc2n1	thermal shift delta Tm	°C	0.44
CN(C)C[C@@H]1CCn2cc(c3ccccc32)C2=C(C(=O)NC2=O)c2cn(c3ccccc23)CCO1	thermal shift delta Tm	°C	0.63
C=CC(=O)N1CCC(Oc2cc3c(Nc4ccc(Cl)c(Cl)c4F)ncnc3cc2OC)CC1 [Poziotinib (HM781-36B)]	thermal shift delta Tm	°C	0.44
OC(c1cc(-c2ccc(Cl)cc2)nc2ccccc12)C1CCCCN1 (stereo not drawn)	thermal shift delta Tm	°C	0.43
Cc1ccc(NC(=O)c2ccc(CN3CCN(C)CC3)cc2)cc1Nc1nccc(-c2cccnc2)n1 [Imatinib (STI571)]	thermal shift delta Tm	°C	0.5
O=C(Nc1nccs1)C(c1cc(F)ccc1O)N1Cc2ccccc2C1=O (stereo not drawn)	thermal shift delta Tm	°C	0.61
CCn1nc(C2CCN(C(=O)CCO)CC2)nc1-c1cnc(N)c(-c2nnc(C(C)(C)C)o2)n1	thermal shift delta Tm	°C	0.58

====

This listing pairs molecules with measured thermal shift delta Tm.
# System: LOC_OS02G17970-cb001
# Experimental protocol: thermal shift delta Tm vs DMSO control; higher = stronger stabilization (binding)
# Conditions used: 12.5 µM; protein concentration 2 µM

Molecule	Assay system	Units of measure	thermal shift delta Tm
Cn1ncc(Cl)c1-c1cc(C(=O)N[C@H](CN)Cc2ccc(F)c(F)c2)oc1Cl	LOC_OS02G17970-cb001	°C	1.67
CCn1c(-c2nonc2N)nc2c(C#CC(C)(C)O)ncc(OC[C@H]3CCCNC3)c21	LOC_OS02G17970-cb001	°C	-0.03
CN1CCCN(C(=O)c2cccc(-c3ccc(/C=C4/C(=O)Nc5ccc(Cl)cc54)o3)c2)CC1	LOC_OS02G17970-cb001	°C	1.03
Cn1cc(-c2cnn3c(N)c(Br)c([C@@H]4CCCNC4)nc23)cn1	LOC_OS02G17970-cb001	°C	-0.03
CNC(=O)Nc1ccc(-c2nc(N3CC4CCC(C3)O4)c3cnn(C4CCC5(CC4)OCCO5)c3n2)cc1	LOC_OS02G17970-cb001	°C	0.84
CO[C@H]1CC[C@H](N2C(=O)CNc3ncc(-c4ccc(C(C)(C)O)nc4)nc32)CC1	LOC_OS02G17970-cb001	°C	-0.48
Cn1cnc2c(F)c(Nc3ccc(Br)cc3Cl)c(C(=O)NOCCO)cc21 [Selumetinib (AZD6244)]	LOC_OS02G17970-cb001	°C	0.19
O=c1ncn2nc(Sc3ccc(F)cc3F)ccc2c1-c1c(Cl)cccc1Cl	LOC_OS02G17970-cb001	°C	0.56
CC(C)(C)c1cnc(CSc2cnc(NC(=O)C3CCNCC3)s2)o1	LOC_OS02G17970-cb001	°C	-0.01
C=CC(=O)Nc1cccc(Oc2nc(Nc3ccc(N4CCN(C)CC4)cc3OC)ncc2Cl)c1	LOC_OS02G17970-cb001	°C	0.24
O=C(Nc1cccnc1)c1cc(-c2ccnc(F)c2)ccc1OCc1ccccc1	LOC_OS02G17970-cb001	°C	0.6
